Rule: logP below 0.2 gives 1 (yes), anything at or above gives 0 (no).

{"COMPOUND": "CN(C)CCC(c1ccc(Cl)cc1)c1ccccn1 (stereo unspecified)", "GROUP": "0 (no)"}
{"COMPOUND": "CC(=O)Nc1ccccc1", "GROUP": "0 (no)"}
{"COMPOUND": "Oc1ncnc2[nH]cnc12", "GROUP": "1 (yes)"}
{"COMPOUND": "Cc1cn([C@H]2C[C@H](O)[C@@H](CO)O2)c(=O)[nH]c1=O", "GROUP": "1 (yes)"}
{"COMPOUND": "COc1ccccc1", "GROUP": "0 (no)"}

Problem: A record lists "CNC(=O)Oc1cccc(I)c1" . Is its logP below 0.2?
Solution: 0 (no)

Problem: Item "Cc1cnccn1" : logP beneath 0.2, strictly?
Solution: 0 (no)

Problem: Input "CCOc1cccc(OC(=O)NC)c1" ; condition: logP strictly below 0.2. Does it hold?
Solution: 0 (no)

Problem: In the record for "NCCc1cccnc1" , is logP less than 0.2?
Solution: 1 (yes)

Problem: Field: below-cutoff. Rule: recorded logP strictly less than 0.2. Subject: "O=C(O)c1ccc(Oc2ccccc2)cc1"
Solution: 0 (no)

Problem: A record lists "COc1ccccc1OCC(=O)O" . Is its logP below 0.2?
Solution: 0 (no)

Problem: In plain terms, does "Nc1nc(O)c2ncn([C@H]3CC[C@@H](CO)O3)c2n1" come in under 0.2 for logP?
Solution: 1 (yes)

Problem: Hello, is logP of the following compound strictly smaller than 0.2? "CCOCCO"
Solution: 1 (yes)

Problem: Check if logP falls below 0.2 for "Oc1c(Cl)cc(Cl)c(Cl)c1Cl" .
Solution: 0 (no)

Problem: # check: logP < 0.2 for "N#Cc1cccs1"
Solution: 0 (no)

Problem: Please check: logP for "N#Cc1ccccc1O" , strictly under 0.2 or not?
Solution: 0 (no)
